// reported self-cleavage kobs at 40 uM GlcN6P per item
B1: glmS ribozyme (parent)
chain: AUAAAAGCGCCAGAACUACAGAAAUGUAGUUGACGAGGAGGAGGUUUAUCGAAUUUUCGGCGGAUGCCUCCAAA

# Variants of: B1
# Procedure text: self-cleavage kobs at 40 uM GlcN6P; higher = faster cleavage; RNA array
# Condition set: with glucosamine-6-phosphate
Fewer inactive variants are shown than the library holds.

# annotated cases, reported self-cleavage kobs at 40 uM GlcN6P shown
>  <Mutation list>
A14C C50G C68A

>  <self-cleavage kobs at 40 uM GlcN6P>
4.86e-05 s⁻¹

$$$$
>  <Mutation list>
A6G U49G

>  <self-cleavage kobs at 40 uM GlcN6P>
< 1e-05 s⁻¹

$$$$
>  <Mutation list>
A6G G35U A52C C70G

>  <self-cleavage kobs at 40 uM GlcN6P>
< 1e-05 s⁻¹

$$$$

IN: Please report the recorded self-cleavage kobs at 40 uM GlcN6P for G38C U65G .
OUT: < 1e-05 s⁻¹

IN: Given C10U G38C , state its recorded self-cleavage kobs at 40 uM GlcN6P.
OUT: < 1e-05 s⁻¹

IN: Request the reported self-cleavage kobs at 40 uM GlcN6P associated with G7C U31C G43C C50U
OUT: < 1e-05 s⁻¹

IN: Which self-cleavage kobs at 40 uM GlcN6P is reported for this variant? U54C C71U
OUT: 0.000802 s⁻¹

IN: Entry G13A A36G G44U A53U : reported self-cleavage kobs at 40 uM GlcN6P = ?
OUT: < 1e-05 s⁻¹
